Cited source: the supplement of paper PMC9112550

System: Escherichia coli TOP10
protocol.notes: shrunken log2 fold change of peptide-encoding DNA abundance (4.5 h post-induction vs induction); higher = less antimicrobial activity (less host growth inhibition)
study.conditions: time post-induction: 4.5 h; library: site-saturation at positions 5, 18, 19, 20
Task for the reader: assign each of the following sequences its reported shrunken log2 fold change.
Just the number, please.

Using the record for RRIRVRPPRLPRPRPRPADYPRP , report its shrunken log2 fold change.
0.0436

Using the record for RRIRVRPPRLPRPRPRPMAKPRP , report its shrunken log2 fold change.
0.0605

Using the record for RRIRDRPPRLPRPRPRPMTNPRP , report its shrunken log2 fold change.
-0.184

Using the record for RRIRHRPPRLPRPRPRPGDIPRP , report its shrunken log2 fold change.
-0.412

Using the record for RRIRSRPPRLPRPRPRPMGMPRP , report its shrunken log2 fold change.
-0.366

Using the record for RRIRPRPPRLPRPRPRPYTSPRP , report its shrunken log2 fold change.
-0.261

Using the record for RRIRYRPPRLPRPRPRPELFPRP , report its shrunken log2 fold change.
-0.0192

Using the record for RRIRDRPPRLPRPRPRPKDNPRP , report its shrunken log2 fold change.
-0.116

Using the record for RRIRIRPPRLPRPRPRPMPEPRP , report its shrunken log2 fold change.
-0.11

Using the record for RRIRRRPPRLPRPRPRPRYSPRP , report its shrunken log2 fold change.
-0.49

Using the record for RRIRFRPPRLPRPRPRPDFNPRP , report its shrunken log2 fold change.
-0.637

Using the record for RRIRRRPPRLPRPRPRPGSAPRP , report its shrunken log2 fold change.
0.378

Using the record for RRIRWRPPRLPRPRPRPHAVPRP , report its shrunken log2 fold change.
0.172

Using the record for RRIRWRPPRLPRPRPRPDKDPRP , report its shrunken log2 fold change.
-0.365

Using the record for RRIRPRPPRLPRPRPRPETDPRP , report its shrunken log2 fold change.
0.229

Using the record for RRIRFRPPRLPRPRPRPQKDPRP , report its shrunken log2 fold change.
-0.376

Using the record for RRIRVRPPRLPRPRPRPQHVPRP , report its shrunken log2 fold change.
-0.0853

Using the record for RRIRGRPPRLPRPRPRPAWNPRP , report its shrunken log2 fold change.
0.378

Using the record for RRIRERPPRLPRPRPRPAQLPRP , report its shrunken log2 fold change.
-0.124

Using the record for RRIRARPPRLPRPRPRPSEGPRP , report its shrunken log2 fold change.
-0.00533

Using the record for RRIRIRPPRLPRPRPRPRDAPRP , report its shrunken log2 fold change.
0.215

Using the record for RRIRRRPPRLPRPRPRPMGWPRP , report its shrunken log2 fold change.
0.637

Using the record for RRIRGRPPRLPRPRPRPNFSPRP , report its shrunken log2 fold change.
0.078

Using the record for RRIRRRPPRLPRPRPRPEAPPRP , report its shrunken log2 fold change.
0.708

Using the record for RRIRERPPRLPRPRPRPAFPPRP , report its shrunken log2 fold change.
0.295

Using the record for RRIRTRPPRLPRPRPRPYQYPRP , report its shrunken log2 fold change.
-0.546

Using the record for RRIRQRPPRLPRPRPRPTQAPRP , report its shrunken log2 fold change.
0.186

Using the record for RRIRRRPPRLPRPRPRPGRSPRP , report its shrunken log2 fold change.
-0.104

Using the record for RRIRLRPPRLPRPRPRPDWVPRP , report its shrunken log2 fold change.
-0.0945

Using the record for RRIRRRPPRLPRPRPRPADAPRP , report its shrunken log2 fold change.
0.249

Using the record for RRIRWRPPRLPRPRPRPDGGPRP , report its shrunken log2 fold change.
-0.0355

Using the record for RRIRARPPRLPRPRPRPEREPRP , report its shrunken log2 fold change.
1.05

Using the record for RRIRPRPPRLPRPRPRPGCRPRP , report its shrunken log2 fold change.
0.289

Using the record for RRIRERPPRLPRPRPRPRDEPRP , report its shrunken log2 fold change.
0.307

Using the record for RRIRHRPPRLPRPRPRPHCSPRP , report its shrunken log2 fold change.
-0.124

Using the record for RRIRRRPPRLPRPRPRPHVEPRP , report its shrunken log2 fold change.
-0.162

Using the record for RRIRSRPPRLPRPRPRPDWSPRP , report its shrunken log2 fold change.
0.276

Using the record for RRIRERPPRLPRPRPRPAWFPRP , report its shrunken log2 fold change.
0.187

Using the record for RRIRMRPPRLPRPRPRPGTMPRP , report its shrunken log2 fold change.
-0.115

Using the record for RRIRHRPPRLPRPRPRPHCQPRP , report its shrunken log2 fold change.
-0.0776

Using the record for RRIRTRPPRLPRPRPRPMRSPRP , report its shrunken log2 fold change.
0.232

Using the record for RRIRVRPPRLPRPRPRPRYKPRP , report its shrunken log2 fold change.
-0.131

Using the record for RRIRSRPPRLPRPRPRPTQEPRP , report its shrunken log2 fold change.
0.342

Using the record for RRIRCRPPRLPRPRPRPRMMPRP , report its shrunken log2 fold change.
-0.11

Using the record for RRIRTRPPRLPRPRPRPACWPRP , report its shrunken log2 fold change.
0.281

Using the record for RRIRERPPRLPRPRPRPYIRPRP , report its shrunken log2 fold change.
-1.16

Using the record for RRIRYRPPRLPRPRPRPLRFPRP , report its shrunken log2 fold change.
-0.28

Using the record for RRIRYRPPRLPRPRPRPFTTPRP , report its shrunken log2 fold change.
0.0402

Using the record for RRIRWRPPRLPRPRPRPWYVPRP , report its shrunken log2 fold change.
-0.396

Using the record for RRIRARPPRLPRPRPRPSNRPRP , report its shrunken log2 fold change.
-0.457

Using the record for RRIRPRPPRLPRPRPRPTHWPRP , report its shrunken log2 fold change.
0.484

====

Tested on: Escherichia coli TOP10
protocol.notes: shrunken log2 fold change of peptide-encoding DNA abundance (4.5 h post-induction vs induction); higher = less antimicrobial activity (less host growth inhibition)
study.conditions: time post-induction: 4.5 h; library: site-saturation at positions 5, 18, 19, 20
measurement.kind: shrunken log2 fold change

Using the record for RRIRFRPPRLPRPRPRPAIFPRP , report its shrunken log2 fold change.
-0.416

Using the record for RRIRIRPPRLPRPRPRPHIWPRP , report its shrunken log2 fold change.
-0.582

Using the record for RRIRRRPPRLPRPRPRPNHMPRP , report its shrunken log2 fold change.
-0.299

Using the record for RRIRFRPPRLPRPRPRPNTKPRP , report its shrunken log2 fold change.
-0.323

Using the record for RRIRLRPPRLPRPRPRPDWHPRP , report its shrunken log2 fold change.
-0.264

Using the record for RRIRKRPPRLPRPRPRPTQCPRP , report its shrunken log2 fold change.
0.567

Using the record for RRIRNRPPRLPRPRPRPNNQPRP , report its shrunken log2 fold change.
-0.703

Using the record for RRIRWRPPRLPRPRPRPVHKPRP , report its shrunken log2 fold change.
0.0181

Using the record for RRIRCRPPRLPRPRPRPAFPPRP , report its shrunken log2 fold change.
0.16

Using the record for RRIRNRPPRLPRPRPRPWYVPRP , report its shrunken log2 fold change.
-0.097

Using the record for RRIRERPPRLPRPRPRPQMMPRP , report its shrunken log2 fold change.
-0.0543

Using the record for RRIRNRPPRLPRPRPRPKHQPRP , report its shrunken log2 fold change.
0.124

Using the record for RRIRARPPRLPRPRPRPKLNPRP , report its shrunken log2 fold change.
0.16

Using the record for RRIRCRPPRLPRPRPRPPPTPRP , report its shrunken log2 fold change.
1.48

====

Test system: Escherichia coli TOP10;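 further: peptides expressed intracellularly from a pBAD plasmid library in pooled LB shake-flask culture, induced with 0.3% L-arabinose, DNA abundance read by NGS, three biological replicates, DESeq2 with apeglm shrinkage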
protocol.notes: shrunken log2 fold change of peptide-encoding DNA abundance (4.5 h post-induction vs induction); higher = less antimicrobial activity (less host growth inhibition)
study.conditions: time post-induction: 4.5 h; library: site-saturation at positions 5, 18, 19, 20
In this scheme, each record receives a class according to its shrunken log2 fold change; the ranges are bin 0 = under -0.1, bin 1 = from -0.1 up to -0.01, bin 2 = -0.01 and over

For the record RRIRKRPPRLPRPRPRPMNRPRP , report the class its shrunken log2 fold change corresponds to.
bin 1

For the record RRIRRRPPRLPRPRPRPFAIPRP , report the class its shrunken log2 fold change corresponds to.
bin 2

For the record RRIRMRPPRLPRPRPRPCNCPRP , report the class its shrunken log2 fold change corresponds to.
bin 1

For the record RRIRFRPPRLPRPRPRPELPPRP , report the class its shrunken log2 fold change corresponds to.
bin 1

For the record RRIRNRPPRLPRPRPRPRNFPRP , report the class its shrunken log2 fold change corresponds to.
bin 0

For the record RRIRIRPPRLPRPRPRPKQRPRP , report the class its shrunken log2 fold change corresponds to.
bin 2

For the record RRIRPRPPRLPRPRPRPYVKPRP , report the class its shrunken log2 fold change corresponds to.
bin 0

For the record RRIRVRPPRLPRPRPRPVWWPRP , report the class its shrunken log2 fold change corresponds to.
bin 1

For the record RRIRQRPPRLPRPRPRPCWHPRP , report the class its shrunken log2 fold change corresponds to.
bin 0

For the record RRIRDRPPRLPRPRPRPLQTPRP , report the class its shrunken log2 fold change corresponds to.
bin 2

For the record RRIRFRPPRLPRPRPRPICSPRP , report the class its shrunken log2 fold change corresponds to.
bin 1

For the record RRIRRRPPRLPRPRPRPCGKPRP , report the class its shrunken log2 fold change corresponds to.
bin 2

For the record RRIRERPPRLPRPRPRPFWQPRP , report the class its shrunken log2 fold change corresponds to.
bin 1

For the record RRIRCRPPRLPRPRPRPFHKPRP , report the class its shrunken log2 fold change corresponds to.
bin 1

For the record RRIRFRPPRLPRPRPRPLHGPRP , report the class its shrunken log2 fold change corresponds to.
bin 0

For the record RRIRNRPPRLPRPRPRPKDHPRP , report the class its shrunken log2 fold change corresponds to.
bin 0

For the record RRIRQRPPRLPRPRPRPCSIPRP , report the class its shrunken log2 fold change corresponds to.
bin 1

For the record RRIRLRPPRLPRPRPRPYDMPRP , report the class its shrunken log2 fold change corresponds to.
bin 0

For the record RRIRIRPPRLPRPRPRPKASPRP , report the class its shrunken log2 fold change corresponds to.
bin 1

For the record RRIRMRPPRLPRPRPRPFYNPRP , report the class its shrunken log2 fold change corresponds to.
bin 0

For the record RRIRPRPPRLPRPRPRPCEFPRP , report the class its shrunken log2 fold change corresponds to.
bin 1

For the record RRIRTRPPRLPRPRPRPGERPRP , report the class its shrunken log2 fold change corresponds to.
bin 2

For the record RRIRFRPPRLPRPRPRPKGDPRP , report the class its shrunken log2 fold change corresponds to.
bin 2

For the record RRIRLRPPRLPRPRPRPKEKPRP , report the class its shrunken log2 fold change corresponds to.
bin 1

For the record RRIRQRPPRLPRPRPRPYMLPRP , report the class its shrunken log2 fold change corresponds to.
bin 0

For the record RRIRFRPPRLPRPRPRPVRHPRP , report the class its shrunken log2 fold change corresponds to.
bin 2

For the record RRIRARPPRLPRPRPRPCLWPRP , report the class its shrunken log2 fold change corresponds to.
bin 0

For the record RRIRKRPPRLPRPRPRPANHPRP , report the class its shrunken log2 fold change corresponds to.
bin 0

For the record RRIRWRPPRLPRPRPRPPFAPRP , report the class its shrunken log2 fold change corresponds to.
bin 2

For the record RRIRIRPPRLPRPRPRPATQPRP , report the class its shrunken log2 fold change corresponds to.
bin 2

For the record RRIRFRPPRLPRPRPRPSPMPRP , report the class its shrunken log2 fold change corresponds to.
bin 2

For the record RRIRWRPPRLPRPRPRPKTSPRP , report the class its shrunken log2 fold change corresponds to.
bin 2

For the record RRIRSRPPRLPRPRPRPLGPPRP , report the class its shrunken log2 fold change corresponds to.
bin 2

For the record RRIRRRPPRLPRPRPRPCDTPRP , report the class its shrunken log2 fold change corresponds to.
bin 1

For the record RRIRLRPPRLPRPRPRPQEEPRP , report the class its shrunken log2 fold change corresponds to.
bin 1

For the record RRIRWRPPRLPRPRPRPMANPRP , report the class its shrunken log2 fold change corresponds to.
bin 2

For the record RRIRGRPPRLPRPRPRPGWNPRP , report the class its shrunken log2 fold change corresponds to.
bin 2

For the record RRIRDRPPRLPRPRPRPHCMPRP , report the class its shrunken log2 fold change corresponds to.
bin 0

For the record RRIRDRPPRLPRPRPRPHGNPRP , report the class its shrunken log2 fold change corresponds to.
bin 0

For the record RRIRDRPPRLPRPRPRPFPFPRP , report the class its shrunken log2 fold change corresponds to.
bin 0

For the record RRIRCRPPRLPRPRPRPFLMPRP , report the class its shrunken log2 fold change corresponds to.
bin 0

For the record RRIRTRPPRLPRPRPRPQSLPRP , report the class its shrunken log2 fold change corresponds to.
bin 1

For the record RRIRMRPPRLPRPRPRPYWHPRP , report the class its shrunken log2 fold change corresponds to.
bin 0

For the record RRIRVRPPRLPRPRPRPSCEPRP , report the class its shrunken log2 fold change corresponds to.
bin 0

For the record RRIRIRPPRLPRPRPRPDSWPRP , report the class its shrunken log2 fold change corresponds to.
bin 0

For the record RRIRPRPPRLPRPRPRPSQVPRP , report the class its shrunken log2 fold change corresponds to.
bin 0

For the record RRIRCRPPRLPRPRPRPKNKPRP , report the class its shrunken log2 fold change corresponds to.
bin 0

For the record RRIRWRPPRLPRPRPRPCHEPRP , report the class its shrunken log2 fold change corresponds to.
bin 2

For the record RRIRHRPPRLPRPRPRPSKCPRP , report the class its shrunken log2 fold change corresponds to.
bin 0
